// provenance: ChEMBL document CHEMBL6109119

- measured target: Mitogen-activated protein kinase 14 (Homo sapiens)
- Sequence (Q16539 whole entry): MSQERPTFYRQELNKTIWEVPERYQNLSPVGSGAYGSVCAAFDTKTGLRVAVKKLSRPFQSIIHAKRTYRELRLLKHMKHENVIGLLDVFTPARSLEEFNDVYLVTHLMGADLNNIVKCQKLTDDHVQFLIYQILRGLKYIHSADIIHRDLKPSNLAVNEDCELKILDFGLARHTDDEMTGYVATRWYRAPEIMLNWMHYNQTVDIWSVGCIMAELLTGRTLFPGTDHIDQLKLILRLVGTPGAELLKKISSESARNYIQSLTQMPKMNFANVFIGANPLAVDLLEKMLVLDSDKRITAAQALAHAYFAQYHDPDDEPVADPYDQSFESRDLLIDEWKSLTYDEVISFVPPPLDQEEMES
- measurement notes: Inhibition of human P38alpha transfected in HEK293 cells using NanoBRET NanoGlo substrate incubated for 2 hrs in presence of K4 tracer by NanoBRET assay
- Type: cell-based
observed property: pIC50
Note on pIC50: it is the negative log10 of concentration, concentration in mol/L.

[[record]]
smiles_record = "CC(C)(C)n1nc(Cc2cccc3ccccc23)c2c(N)ncnc21"
measured_target = "Mitogen-activated protein kinase 14 (Homo sapiens)"
quantitative_readout = 5.80

[[record]]
smiles_record = "c1ccc(-c2n[nH]cc2-c2ccnc3ccccc23)nc1"
measured_target = "Mitogen-activated protein kinase 14 (Homo sapiens)"
quantitative_readout = 6.12

[[record]]
smiles_record = "Cc1ccc2c(-c3ccncc3)c(-c3ccc(F)cc3)nn2c1"
measured_target = "Mitogen-activated protein kinase 14 (Homo sapiens)"
quantitative_readout = 7.36


Now examine the next entry.
Just so you know, measured pIC50 for N#Cc1ccc2c(-c3ccncc3)c(-c3ccc(F)cc3)nn2c1 came out at 7.10

====

- measured target: Serine/threonine protein kinase YCK2 (Candida albicans (strain SC5314 / ATCC MYA-2876) (Yeast), UniProt A0A1D8PKB4)
- Sequence (A0A1D8PKB4 whole entry): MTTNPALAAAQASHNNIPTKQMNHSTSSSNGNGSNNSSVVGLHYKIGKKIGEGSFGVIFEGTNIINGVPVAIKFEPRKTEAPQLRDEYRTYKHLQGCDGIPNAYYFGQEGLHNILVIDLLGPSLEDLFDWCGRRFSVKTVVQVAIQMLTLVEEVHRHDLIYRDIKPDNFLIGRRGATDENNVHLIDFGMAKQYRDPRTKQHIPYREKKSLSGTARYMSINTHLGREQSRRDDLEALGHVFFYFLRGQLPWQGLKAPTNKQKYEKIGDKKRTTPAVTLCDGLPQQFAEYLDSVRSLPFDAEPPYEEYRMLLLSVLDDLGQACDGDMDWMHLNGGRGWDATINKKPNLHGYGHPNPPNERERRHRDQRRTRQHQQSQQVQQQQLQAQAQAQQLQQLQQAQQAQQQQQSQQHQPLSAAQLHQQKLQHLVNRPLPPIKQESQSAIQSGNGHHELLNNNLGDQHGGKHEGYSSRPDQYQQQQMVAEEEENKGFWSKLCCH
- Type: cell-based, HEK293
observed property: IC50 (µM)
Answer in µM, number only, no unit symbol.

Known IC50 results, listed for orientation:
[[record]]
smiles_record = "Cc1occc1-c1nc(N)c(OC[C@@H](N)Cc2c[nH]c3ccccc23)cc1-c1cc2c(C)n[nH]c2cn1"
quantitative_readout = 3.7

[[record]]
smiles_record = "CC(=O)c1cnc2ccc(-c3cc(Cl)c(O)c(Cl)c3)nc2c1N[C@H]1CC[C@H](CN(C)C)CC1"
quantitative_readout = 0.66

[[record]]
smiles_record = "CNC(=O)c1nn(C)c2c1C(C)(C)Cc1cnc(Nc3ccc(N4CCN(C)CC4)cc3)nc1-2"
quantitative_readout = 1.1


Lab note: next molecule to report on.
Memo: Cc1n[nH]c2ccc(-c3cc(OC[C@@H](N)Cc4ccccc4)cnc3-c3ccoc3)cc12 , reported IC50: 0.1

====

- measured target: Casein kinase I isoform epsilon (Homo sapiens, UniProt P49674)
observed property: IC50

These solved cases illustrate the format of a correct answer.
[[record]]
smiles_record = "CC(C)[C@H](CO)Nc1nc(Nc2cc(N)cc(Cl)c2)c2ncn(C(C)C)c2n1"
result = "> 10 µM"

[[record]]
smiles_record = "Cc1occc1-c1nc(N)c(OC[C@@H](N)Cc2c[nH]c3ccccc23)cc1-c1cc2c(C)n[nH]c2cn1"
result = "0.62 µM"

[[record]]
smiles_record = "N#Cc1ccn2c(-c3ccncc3)c(-c3ccc(F)cc3)nc2c1"
result = "> 10 µM"


IC50 for CN1CCC(F)(Cn2cnc(-c3ccc(F)cn3)c2-c2ccnc3[nH]ccc23)CC1 is 0.082 µM

What the record says about CC(C)(C)n1nc(Cc2cccc3ccccc23)c2c(N)ncnc21 : IC50 is 0.014 µM

====

Listed here are compounds together with their documented inhibition.
- measured target: Casein kinase I isoform epsilon (Homo sapiens)
- measurement notes: Inhibition of human CK1epsilon transfected in HEK293 cells at 10 uM using NanoBRET NanoGlo substrate incubated for 2 hrs in presence of K8 tracer by NanoBRET assay relative to control
- Assay type: cell-based
- Sequence (P49674 whole entry, looked up, canonical isoform): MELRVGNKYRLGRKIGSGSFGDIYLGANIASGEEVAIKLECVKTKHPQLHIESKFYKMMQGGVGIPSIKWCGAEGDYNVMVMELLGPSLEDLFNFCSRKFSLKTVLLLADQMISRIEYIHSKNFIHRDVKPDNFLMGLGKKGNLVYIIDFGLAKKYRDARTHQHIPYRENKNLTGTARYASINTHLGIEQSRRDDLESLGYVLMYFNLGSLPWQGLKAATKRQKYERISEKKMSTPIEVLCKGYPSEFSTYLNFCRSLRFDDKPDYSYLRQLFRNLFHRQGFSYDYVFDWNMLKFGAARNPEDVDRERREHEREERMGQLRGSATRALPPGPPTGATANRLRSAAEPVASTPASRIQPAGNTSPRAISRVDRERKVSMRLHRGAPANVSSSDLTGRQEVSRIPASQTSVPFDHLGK

[[record]]
smiles_record = "c1ccc(-c2n[nH]cc2-c2ccnc3ccccc23)nc1"
measured_target = "Casein kinase I isoform epsilon (Homo sapiens)"
result = "< 25%"

[[record]]
smiles_record = "CC(C)n1nc(-c2cc3cc(O)ccc3[nH]2)c2c(N)ncnc21"
measured_target = "Casein kinase I isoform epsilon (Homo sapiens)"
result = "> 50%"


Lab note: Cc1nc(N)sc1-c1ccnc(Nc2ccc(N3CCOCC3)cc2)n1 gave inhibition of > 50%
